# System: SF-268 CNS
# Measurement Description: NCI-60 one-dose screen, 48 h
# Setup Conditions: 10 µM
The panel holds about 83,000 compounds, 20% with a hit somewhere; the sample as a whole holds those more often. The source made the active and inactive calls. How the source made its calls: active means growth percent below 10; inactive means the rest.
Hi there, use one of these labels in your reply, thanks! active, inactive

// known answers, use as guide
> print(dat)
                                   compound  class.assignment
1  Clc1ccc2c(NCCCNc3nccc(Nc4ccc(Br)cc4)n3)ccnc2c1            active
2  OCC1OC(n2cnc3c(N/N=C\c4ccccn4)ncnc32)C(O)C1O (stereo not given)          inactive
3               O=C(O)CCCCSc1ncnc2nc[nH]c12          inactive
4  CN(C)CCN1C(=O)c2cccc3c(-c4ccc5ncn(C6CCCCC6)c5c4)ccc(c23)C1=O          inactive
5  O=C(Nc1cccc(-n2cc(-c3ccncc3)c(-c3ccc(O)c(Cl)c3)n2)c1)c1cc(C(F)(F)F)cc(C(F)(F)F)c1          inactive

Please let me know the test result on file for N#CSCC1CC(O)(c2ccccc2)CC(c2ccc(Cl)cc2)O1 (stereo not given) .
inactive

Please let me know the test result on file for FC(F)(F)c1ccc(-c2cnc(-n3cc(COCCN4CCCCC4)nn3)nc2NC2CCCCCC2)cc1 .
inactive

----------
# Tested on: OVCAR-8 ovarian
# Measurement Description: NCI-60 one-dose screen, 48 h (100 = growth as untreated, 0 = no growth, -100 = all killed)
# Setup Conditions: 10 µM
This is part of a sample that, as a whole, favours compounds with a hit. Of some 83,000 tested, about 20% had one in any assay.
Recorded growth values for a group of molecules are listed next.
Could you give me the number in %? Just the number is fine.

> print(dat)
                                   molecule  unit.name  measured
1  O=C(N/N=C/c1ccccc1)C(Oc1ccccc1)c1ccccc1 (centres undefined)          %       100
2  COc1cc2c(cc1OCCCN1CCN(c3ncnc4ccccc34)CC1)N=CC1CCCN1C2=O (centres undefined)          %     -54.7
3  O=C(Nc1ccc(CN2CCc3nc4cc(O)c(O)cc4cc32)cc1)c1ccc(Cl)c(Cl)c1          %       106
4  COC(=O)C(=C\c1ccc2c(c1)OCO2)/C(=C/c1ccc2c(c1)OCO2)C(=O)OC          %       103
5   COc1ccc(-c2ccc(-c3ccc(C(=N)N)cn3)o2)cc1          %      76.3

Returns the measured growth for the input molecule. Input: COc1ccc(/C(=C2/O[C@@H]([C@H]3COC(C)(C)O3)[C@H]3OC(C)(C)O[C@@H]23)c2cc(OC)c(OC)c(OC)c2)cc1O
96.1

Returns the measured growth for the input molecule. Input: CCOC1(OCC)OC(c2ccccc2)=C(C#N)C(/C=C\c2ccccc2)C1(OCC)OCC (centres undefined)
86.5

Returns the measured growth for the input molecule. Input: O=C(Nc1nc2ccc(F)cc2s1)c1cc(-c2ccc(F)cc2)n2nc(-c3ccccc3)cc2n1
38.6

Returns the measured growth for the input molecule. Input: C#Cc1ccc(-n2c(/C=C/c3ccc4ccccc4n3)nc3ncccc3c2=O)cc1
-16.4

----------
Recorded growth values for a group of compounds are listed next.
# Test system: BT-549 breast
# Measurement Description: NCI-60 one-dose screen, 48 h (100 = growth as untreated, 0 = no growth, -100 = all killed)
# Setup Conditions: 10 µM
The panel holds about 83,000 compounds, 20% with a hit somewhere; the sample as a whole holds those more often.
Could you give me the number in %? Just the number is fine.

Consider the worked cases shown below.
> print(dat)
                           structure.string    test.system  measured
1  CCCCCCNC(=O)Oc1ccc(/C(=C(/CC)Cc2ccccc2)c2ccc(OCCN3CCCCC3)cc2)cc1  BT-549 breast      97.4
2  O=S(=O)(NCCNc1nccc(-c2c(-c3ccc(F)cc3)nc3sccn23)n1)c1ccc2ccccc2c1  BT-549 breast      92.5
3  COc1cc(-c2nn3c(/C=C4/C(=O)Nc5ccccc54)c(-c4ccc(C)cc4)nc3s2)cc(OC)c1OC  BT-549 breast      22.8

Shifting focus to the compound that follows.
Returns the measured growth for the input compound. Input: CC(=O)n1c(-c2ccc(Cl)c(Cl)c2)cn(-c2ccc(Cl)cc2)c1=O
0.373

----------
# System: SF-539 CNS
# Measurement Description: NCI-60 one-dose screen, 48 h (100 = growth as untreated, 0 = no growth, -100 = all killed)
# Setup Conditions: 10 µM
Compounds without any hit were thinned out: in the full panel of roughly 83,000, 20% have a hit.
Recorded growth values for a group of compounds are listed next.
Could you give me the number in %? Just the number is fine.

Consider the worked cases shown below.
Compound	Measured
COc1ccc2c(c1)C(=O)c1c-2c(OCCN(C)C)nc2cc(OC)c(OC)cc12	71.9
CC(=O)CSC(C)=O	95.2

Returns the measured growth for the input compound. Input: O=S(=O)(Nc1ccccn1)c1ccc(N=Nc2ccc(O)c3ncccc23)cc1
10.8

Returns the measured growth for the input compound. Input: COC(=O)c1ccc(=O)oc1
95.8

Returns the measured growth for the input compound. Input: CS(=O)(=O)Nc1ccc(Nc2c3ccccc3nc3cc(N)ccc23)cc1
2.88

----------
Recorded growth values for a group of molecules are listed next.
# System: HT29 colon
# Measurement Description: NCI-60 one-dose screen, 48 h (100 = growth as untreated, 0 = no growth, -100 = all killed)
# Setup Conditions: 10 µM
The panel holds about 83,000 compounds, 20% with a hit somewhere; the sample as a whole holds those more often.
Could you give me the number in %? Just the number is fine.

Consider the worked cases shown below.
> print(dat)
                                   molecule  test.system  measured
1  COc1ccc(OC)c(/C=C/c2nc(SC)n(-c3ccc(Cl)cc3)n2)c1   HT29 colon      90.3
2  COc1cc(-c2nc(-c3nnc(-c4ccc(F)c(Cl)c4)o3)c3ccccn23)cc(OC)c1OC   HT29 colon      15.2
3  COc1cc(-c2cc(/C=C3\C(=O)Nc4cc(Cl)ccc43)[nH]n2)cc(OC)c1OC   HT29 colon      28.3
4  COc1ccc2c(c1)-c1c(c3cc(OC)ccc3n(CCN(C)C)c1=O)C2=O   HT29 colon     -63.4
5  CCOC(=O)C1(CC(C)C)CCOC1=O (stereo not given)   HT29 colon       104

Shifting focus to the molecule that follows.
Returns the measured growth for the input molecule. Input: COc1ccc(-c2nn(-c3cccc(NC(=O)c4ccc5c(c4)OCCO5)c3)cc2-c2ccncc2)cc1Cl
0.486

----------
# Test system: OVCAR-3 ovarian
# Measurement Description: NCI-60 one-dose screen, 48 h (100 = growth as untreated, 0 = no growth, -100 = all killed)
# Setup Conditions: 10 µM
The panel holds about 83,000 compounds, 20% with a hit somewhere; the sample as a whole holds those more often.
Recorded growth values for a group of molecules are listed next.
Could you give me the number in %? Just the number is fine.

Consider the worked cases shown below.
> print(dat)
                           structure.string      test.system  measured.property  unit.name  measured
1  Cc1ccc(-c2nc(/C=C3/C(=O)N(C)c4ccc(F)cc43)c3ccccn23)cc1  OVCAR-3 ovarian             growth          %       112
2  COc1ccc(OC)c(/C=C/c2nnc(Nc3ccc(Cl)cc3)o2)c1  OVCAR-3 ovarian             growth          %      32.1
3  C#Cc1ccc(-n2c(/C=C/c3cc(OC)cc(OC)c3)nc3ncccc3c2=O)cc1  OVCAR-3 ovarian             growth          %      76.4

Query the reported growth for OVCAR-3 ovarian; item: Cc1cc(C)c(CCc2cc(C)c(C)cc2C)cc1C
114

Query the reported growth for OVCAR-3 ovarian; item: COc1ccc(OC)c(/C=C/c2nc(SCc3ccccc3)n(-c3ccc(Cl)cc3)n2)c1
17.3

----------
Recorded growth values for a group of compounds are listed next.
# Tested on: UO-31 renal
# Measurement Description: NCI-60 one-dose screen, 48 h (100 = growth as untreated, 0 = no growth, -100 = all killed)
# Setup Conditions: 10 µM
Compounds without any hit were thinned out: in the full panel of roughly 83,000, 20% have a hit.
Could you give me the number in %? Just the number is fine.

> print(dat)
                                   compound  measured
1    Fc1cc(C(F)(F)F)ccc1-c1cncnc1NC1CCCCCC1      79.9
2  COc1cc(/C=C2\Oc3cc(OCC(=O)c4ccccc4)ccc3C2=O)cc(OC)c1OC      67.6
3  O=[N+]([O-])c1ccc(Oc2cc(Cl)c(Cl)cc2Cl)c(C(F)(F)F)c1      80.2
4  COc1ccc2c(c1)N(CCO)C1=C(C(=O)OC1)C2c1ccc(OC)c(OC)c1 (configuration not stated)      60.9
5               S=c1[nH]ccn1-c1c(Cl)cccc1Cl        91
6  COc1ccc(OC)c(/C=C/c2nc(SCc3ccccc3)n(-c3ccc(Cl)cc3)n2)c1     -48.7

Returns the measured growth for the input compound. Input: COc1ccc2c(c1)N(CCO)C1=C(C(=O)OC1)C2c1cc(OC)c(OC)c(OC)c1 (configuration not stated)
15.2

Returns the measured growth for the input compound. Input: O=C(O)CN1C(=O)c2cccc3cccc(c23)C1=O
97.1
